molecular target: recombinant cynomolgus IL23 (Macaca fascicularis, UniProt H6WS56;H6WS55); assay: SPR
pKd: −log10 of the molar value.
Items are presented alongside their recorded pKd.
Measured metric: pKd

• BI 655068 (VH 02-Vk65 IgG1) (antibody, V domains shown) VH: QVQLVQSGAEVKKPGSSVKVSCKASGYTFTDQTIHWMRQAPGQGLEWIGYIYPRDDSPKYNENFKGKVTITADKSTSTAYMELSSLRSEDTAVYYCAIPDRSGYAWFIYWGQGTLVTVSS VL: DIQMTQSPSSLSASVGDRVTITCKASRDVAIAVAWYQQKPGKVPKLLLFWASTRHTGVPDRFSGSGSGTDFTLTISSLQPEDLADYYCHQYSSYPFTFGQGTKLEIK = > 11.00
• BI 655067 (VH 05-Vk65 IgG1) (antibody, V domains shown) VH: QVQLVQSGAEVKKPGSSVKVSCKASGFTFTDQTIHWVRQAPGQGLEWMGYIYPRDDSPKYNENFKGKVTLTADKSTSTAYMELSSLRSEDTAVYYCAIPDRSGYAWFIYWGQGTLVTVSS VL: DIQMTQSPSSLSASVGDRVTITCKASRDVAIAVAWYQQKPGKVPKLLLFWASTRHTGVPDRFSGSGSGTDFTLTISSLQPEDLADYYCHQYSSYPFTFGQGTKLEIK = > 11.00
• BI 655066 (VH 02-Vk66 IgG1) (antibody, V domains shown) VH: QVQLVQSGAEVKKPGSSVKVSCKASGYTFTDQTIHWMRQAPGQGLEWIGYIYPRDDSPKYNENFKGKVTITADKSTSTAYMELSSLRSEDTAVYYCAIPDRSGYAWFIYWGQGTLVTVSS VL: DIQMTQSPSSLSASVGDRVTITCKASRDVAIAVAWYQQKPGKVPKLLIYWASTRHTGVPSRFSGSGSRTDFTLTISSLQPEDVADYFCHQYSSYPFTFGSGTKLEIK = > 11.00
• BI 655069 (VH 05-Vk66 IgG1) (antibody, V domains shown) VH: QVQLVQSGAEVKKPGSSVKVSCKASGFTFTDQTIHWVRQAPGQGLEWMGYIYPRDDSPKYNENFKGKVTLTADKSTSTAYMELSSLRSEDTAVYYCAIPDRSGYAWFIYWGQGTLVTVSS VL: DIQMTQSPSSLSASVGDRVTITCKASRDVAIAVAWYQQKPGKVPKLLIYWASTRHTGVPSRFSGSGSRTDFTLTISSLQPEDVADYFCHQYSSYPFTFGSGTKLEIK = 10.80
